Attribute: IC50
molecular target: Human immunodeficiency virus type 1 reverse transcriptase (Human immunodeficiency virus 1); assay: Inhibitory effect on HIV-1 reverse transcriptase activity using poly(rC)-oligo(dG) template primer

{"columns": ["COMPOUND", "IC50 / µM"],
 "data": [
  ["Cc1c(Sc2ccccc2)n(COCCO)c(=O)[nH]c1=O [HEPT]", 150],
  ["Cc1c(Sc2ccccc2)n(COCCOP(=O)(O)P(=O)(O)P(=O)(O)O)c(=O)[nH]c1=O", 500]
]}

* * *

assay: Selectivity index is the ratio of CC50/EC50; assay type: functional

{"columns": ["STRUCTURE STRING", "SI"],
 "data": [
  ["O=c1[nH]c(=O)n(COCCO)c(I)c1Cl", "< 2.2"],
  ["O=c1[nH]c(=O)n(COCCO)c(Sc2ccccc2)c1F", "< 2.9"],
  ["O=c1[nH]c(=O)n(COCCO)c(I)c1F", "< 2.1"],
  ["Nc1ncnc2c1ncn2[C@H]1CC[C@@H](CO)O1", 141],
  ["O=c1[nH]c(=O)n(COCCO)c(I)c1Br", "< 2.3"],
  ["O=c1[nH]c(=O)n(COCCO)c(Sc2ccccc2)c1Cl", "< 3.4"],
  ["O=c1cc(I)n(COCCO)c(=O)[nH]1", "< 2.5"],
  ["Nc1ccn([C@H]2CC[C@@H](CO)O2)c(=O)n1", 133],
  ["O=c1cc(Sc2ccccc2)n(COCCO)c(=O)[nH]1", "< 3.7"],
  ["Cc1c(I)n(COCCO)c(=O)[nH]c1=O", "< 5"],
  ["O=c1[nH]c(=O)n(COCCO)c(Sc2ccccc2)c1Br", "< 2.2"],
  ["Cc1cn([C@H]2C[C@H](N=[N+]=[N-])[C@@H](CO)O2)c(=O)[nH]c1=O", 1250]
]}
